Reference source for all entries: ChEMBL document CHEMBL4049452

Target Under Test: Glucagon-like peptide 1 receptor (Homo sapiens, UniProt P43220)
Sequence (P43220 whole entry): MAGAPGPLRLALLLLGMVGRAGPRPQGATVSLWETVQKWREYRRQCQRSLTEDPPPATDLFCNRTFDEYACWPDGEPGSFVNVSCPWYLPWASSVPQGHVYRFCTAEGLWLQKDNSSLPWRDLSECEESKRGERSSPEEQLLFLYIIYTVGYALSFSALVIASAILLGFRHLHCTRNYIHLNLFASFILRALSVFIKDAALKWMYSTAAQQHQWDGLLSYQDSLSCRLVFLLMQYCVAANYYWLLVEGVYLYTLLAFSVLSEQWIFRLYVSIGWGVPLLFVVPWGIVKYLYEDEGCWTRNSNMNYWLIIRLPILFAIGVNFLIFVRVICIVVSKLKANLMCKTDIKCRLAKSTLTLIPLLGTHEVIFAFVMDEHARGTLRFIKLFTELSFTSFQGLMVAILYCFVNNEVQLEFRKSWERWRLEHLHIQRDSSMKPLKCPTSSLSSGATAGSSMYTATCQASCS
Measurement Protocol: Agonist activity at human GLP-1 receptor expressed in HEK293 cells assessed as cAMP accumulation after 30 mins by HTRF assay
Assay type: functional, cell-based
Measured pEC50 by item
pEC50 (log units): -log10 of the concentration in mol/L.

Please review the entries below; each comes with its answer.
# Substance, pEC50
rows = [
    ("H-HSQGTFTSDLSKQMDSRRAQDFIEWLKNGGPSSNNIA-NH2", 10.76),
    ("H-HSQGTFTSDLSKQMDSRRAQDFIEWLKNGGPSS-NH2", 10.82),
    ("H-HGEGTFTSDLSKQMDSRRAQDFVQWLKNGGPSSGAPPPS-NH2", 10.25),
    ("H-HGEGTFTSDLSKQMDSRRAQDFVEWLKNGGPSSGAPPPS-NH2", 10.65),
    ("H-HSQGTFTSDLSKQMDSRRAQDFIEWLKNG-NH2", 11.09),
]

Shift focus to the following entry.
Find the recorded pEC50 belonging to "H-HSQGTFTSDLSKQMEEEAVRLFIEWLMNTKRNRGAPPPS-NH2" and report it.
11.66

----------
Target Under Test: Glucagon receptor (Homo sapiens, UniProt P47871)
Sequence (P47871 whole entry): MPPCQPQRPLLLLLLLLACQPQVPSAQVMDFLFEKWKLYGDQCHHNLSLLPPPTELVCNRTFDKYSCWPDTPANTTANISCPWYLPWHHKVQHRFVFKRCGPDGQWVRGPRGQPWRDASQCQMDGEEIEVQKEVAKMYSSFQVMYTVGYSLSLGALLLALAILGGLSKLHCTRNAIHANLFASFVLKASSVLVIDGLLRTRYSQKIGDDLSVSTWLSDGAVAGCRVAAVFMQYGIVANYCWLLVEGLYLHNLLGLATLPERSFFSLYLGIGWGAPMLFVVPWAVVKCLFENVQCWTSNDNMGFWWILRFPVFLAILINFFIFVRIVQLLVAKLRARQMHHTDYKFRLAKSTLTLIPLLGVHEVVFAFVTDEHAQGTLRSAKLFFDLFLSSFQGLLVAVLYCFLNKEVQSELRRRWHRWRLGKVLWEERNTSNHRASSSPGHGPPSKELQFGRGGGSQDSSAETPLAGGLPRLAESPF
Measurement Protocol: Agonist activity at human glucagon receptor expressed in HEK293 cells assessed as cAMP accumulation after 30 mins by HTRF assay
Assay type: functional, cell-based
pEC50: −log10 of the molar value.
Please note: label 1 applies when pEC50 is 10 or greater, and label 0 applies otherwise.

# Substance, Category
measured = [
    ("H-HGEGTFTSDLSKQMDSRRAQDFVQWLKNGGPSSGAPPPS-NH2", "label 0"),
]

State whether the measured pEC50 reaches 10, counting equality as reaching it, for "H-HSQGTFTSDLSKQMDSRRAQDFIEWLKNG-NH2"
label 1

Further, for "H-HSQGTFTSDLSKQMDSRRAQDFIEWLKNGGPSSNNIA-NH2" ?
label 1

----------
Target Under Test: Glucagon receptor (Homo sapiens, UniProt P47871)
Measurement Protocol: Agonist activity at human glucagon receptor expressed in HEK293 cells assessed as cAMP accumulation after 30 mins by HTRF assay
Type: functional, cell-based
Measured pEC50 by item
pEC50 (log units): -log10 of the concentration in mol/L.

Please review the entries below; each comes with its answer.
# Substance, Measured Metric, Readout Number
records = [
    ("H-HGEGTFTSDLSKQMDSRRAQDFVEWLKNGGPSSGAPPPS-NH2", "pEC50", 5.00),
    ("H-HSEGTFTSDLSKQMDSRRAQDFIEWLKNGGPSSGAPPPS-NH2", "pEC50", 6.77),
    ("H-HSQGTFTSDLSKQMEEEAVRLFIEWLMNTKRNRGAPPPS-NH2", "pEC50", 8.91),
]

Shift focus to the following entry.
Find the recorded pEC50 belonging to "H-HSQGTFTSDLSKQMDSRRAQDFIEWLKNGGPSS-NH2" and report it.
11.05
